STUDY_SYSTEM: CK2A1 (CK2α/β) (Homo sapiens, UniProt P68400)
Sequence (P68400 whole entry, species assumed): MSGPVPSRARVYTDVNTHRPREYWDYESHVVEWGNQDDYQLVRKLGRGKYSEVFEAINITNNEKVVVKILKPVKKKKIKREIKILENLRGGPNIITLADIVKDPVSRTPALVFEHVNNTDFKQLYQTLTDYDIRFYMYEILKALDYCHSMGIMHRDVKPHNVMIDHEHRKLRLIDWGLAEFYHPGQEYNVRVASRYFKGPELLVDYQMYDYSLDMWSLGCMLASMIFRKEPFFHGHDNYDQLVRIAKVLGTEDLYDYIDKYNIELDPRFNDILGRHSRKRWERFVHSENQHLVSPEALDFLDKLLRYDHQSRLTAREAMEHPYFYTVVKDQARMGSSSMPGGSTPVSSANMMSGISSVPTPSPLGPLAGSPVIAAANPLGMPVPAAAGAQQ
Sequence (P67870 whole entry partner, species assumed): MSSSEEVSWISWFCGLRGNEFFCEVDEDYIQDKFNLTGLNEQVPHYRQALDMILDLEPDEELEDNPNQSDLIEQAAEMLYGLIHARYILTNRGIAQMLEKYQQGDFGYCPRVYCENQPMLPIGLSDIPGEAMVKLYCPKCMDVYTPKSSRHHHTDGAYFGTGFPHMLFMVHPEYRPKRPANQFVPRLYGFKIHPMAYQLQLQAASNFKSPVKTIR
PROCEDURE_DETAILS: CK2 kinase assay, CK2A1 (CK2α/β)
Assay type: biochemical
RECORDED_CONDITIONS: Table A; read-out: CK2A1 (CK2α/β) (IC50)
Measured IC50 accompanies every entry in the list below.
Please state the figure in nM; there is no need to write the unit.

COC(=O)N[C@@H]1CN(c2cc(C#N)cc(Nc3nc(NC4CC4)c4ncc(C#N)n4n3)c2Cl)C[C@@H]1C (racemic) [Example 11]    0.68
N#Cc1cc(Nc2nc(NC3CC3)c3ncc(C#N)n3n2)c(Cl)cc1NC1CCN(C2COC2)CC1 [Example 411]    0.76

Field: next compound
Task item: Need IC50 of CC(=O)N1CC(N2CCN(c3cc(C#N)cc(Nc4nc(NC5CC5)c5ncc(C#N)n5n4)c3F)CC2)C1 [Example 551] , thanks.
Reply: 1.23

Hey, just so you know, these numbers are from patent US9273057B2.
